Sourced from patent US20260242735A1

Biological target: human CD33 A265S (human, UniProt P20138 18-364)
Sequence (P20138 18-364 A265S limits assumed): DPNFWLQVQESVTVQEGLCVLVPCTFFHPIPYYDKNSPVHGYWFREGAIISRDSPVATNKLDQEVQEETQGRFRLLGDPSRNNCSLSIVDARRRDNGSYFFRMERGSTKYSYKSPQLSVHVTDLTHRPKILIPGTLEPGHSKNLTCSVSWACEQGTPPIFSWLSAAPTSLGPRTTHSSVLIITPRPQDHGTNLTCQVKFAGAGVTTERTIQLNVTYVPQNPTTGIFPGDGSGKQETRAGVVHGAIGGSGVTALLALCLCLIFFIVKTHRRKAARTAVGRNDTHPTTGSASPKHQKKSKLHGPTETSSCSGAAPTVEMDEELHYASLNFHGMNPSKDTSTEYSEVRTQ
Assay: alanine scan, flow cytometry, HEK293-T;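 note: antibody binding to each alanine-substituted CD33 mutant expressed transiently in HEK293-T, read as fluorescence minus background, mean of duplicates, relative to wild-type CD33 set as 100%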
measured-attribute: Mean % WT Binding

Query block: Please look at this binder and report its Mean % WT Binding: Refmab #3 (antibody, V domains shown, The alanine scan used IgG or Fab) VH: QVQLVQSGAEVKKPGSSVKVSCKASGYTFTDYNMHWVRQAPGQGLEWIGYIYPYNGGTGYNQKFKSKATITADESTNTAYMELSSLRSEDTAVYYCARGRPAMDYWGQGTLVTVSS VL: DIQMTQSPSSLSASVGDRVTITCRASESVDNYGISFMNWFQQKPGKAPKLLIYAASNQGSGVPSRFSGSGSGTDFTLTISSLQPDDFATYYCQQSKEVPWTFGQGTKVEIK
Result block: 92.4 % WT binding
